- System: 786-0
- experiment.description: NCI tumour cell line growth inhibition, 48 h
The source made the active and inactive calls. No stated cut-off is given here; in the data, active = GI50 up to about 1.1 µM and inactive = higher.
# reported GI50; entries follow
value.kind: GI50

compound=O=C1/C(=C/c2ccc(O)cc2)Oc2ccccc21 test_system=786-0 data_value="> 100 µM (inactive)"
compound=O=C1N=C2SC=C(NC(=S)Nc3ccccc3)N2NC12c1ccccc1-c1ccccc12 test_system=786-0 data_value="> 10 µM (inactive)"
compound=Cc1ccccc1C(=N)c1ccccc1Cc1cccc2ccccc12 test_system=786-0 data_value="19.4 µM (inactive)"
compound=Cc1ccccc1Nc1cn(CCOc2ccccc2)c(=O)n(CCOc2ccccc2)c1=O test_system=786-0 data_value="> 100 µM (inactive)"
compound=Cn1cc(NC(=O)c2cc(NC(=O)CCCCCCCCCC(=O)Nc3cc(C(=O)Nc4cc(C(=O)NCCC(=N)N)n(C)c4)n(C)c3)cn2C)cc1C(=O)NCCC(=N)N test_system=786-0 data_value="29.4 µM (inactive)"
compound="C=CCSS/C=C/C[S+]([O-])CC=C (stereo not given)" test_system=786-0 data_value="18.3 µM (inactive)"
compound="O=C1c2cc([N+](=O)[O-])ccc2NC2C(O)c3ccccc3N12 (stereo not given)" test_system=786-0 data_value="25.2 µM (inactive)"
compound=NNC(=O)CCC(=O)Nc1cc(Cl)c(Cl)cc1Cl test_system=786-0 data_value="> 100 µM (inactive)"
compound="CC1=NN(c2ccccc2Cl)C2(C1)C(Cl)C(=O)N2c1nc2ccccc2s1 (stereo not given)" test_system=786-0 data_value="31.8 µM (inactive)"
compound="CC1(C)[C@@H]2CC[C@@]1(C)C1(S[S+]1[O-])C21Cc2ccccc2C1 (stereo not given in full)" test_system=786-0 data_value="16.4 µM (inactive)"
